Test: chemical genetic growth profiling, strain panel (AID 1159580);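 note: tested at 20 µM; growth read once vehicle control cultures reached saturation at 30 °C; 1 = growth at the plate median or of vehicle wells; lower values mean less growth of the strain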
Details: S. cerevisiae deletion strains, growth OD, locus YKL009W, strain mrt4, hits give low values
In all, about 5,500 compounds went through this assay and about 2,000 (36%) were called active. About 18% were inconclusive and are not listed. The list shows a part of the results.
Please assign 0 (no) whenever normalized growth is at or above 1, and 1 (yes) whenever it is below.

Bench note: check whether "CC1=NCCc2c1[nH]c1cc(O)ccc21" shows normalized growth below 1
1 (yes)

Bench note: check whether "CN(C)CCC=C1c2ccccc2C=Cc2ccccc21" shows normalized growth below 1
1 (yes)

Bench note: check whether CC(N)Cc1ccc(O)cc1 (stereo not drawn) shows normalized growth below 1
0 (no)

Bench note: check whether "NCCc1ccc(O)c(O)c1" shows normalized growth below 1
1 (yes)

Bench note: check whether "COC(=O)C1=C(C)NC(C)=C(C(=O)OC)C1c1ccccc1[N+](=O)[O-]" shows normalized growth below 1
1 (yes)

Bench note: check whether "NCCc1cccc(O)c1" shows normalized growth below 1
1 (yes)

Bench note: check whether "O=C(O)c1nc2cc(Cl)c(Cl)cc2[nH]c1=O" shows normalized growth below 1
1 (yes)

Bench note: check whether "CN(C)CC/C=C1/c2ccccc2COc2ccccc21" shows normalized growth below 1
0 (no)

* * *

Assay: chemical genetic growth profiling, strain panel (AID 1159580)
Details: S. cerevisiae deletion strains, growth OD, locus YIL073C, strain SPO22, hits give low values
Screen size: about 5,500 compounds; about 2,000 (36%) were called active. Another 18% or so got no clear call; they are omitted. Some of the results follow.
Each record here notes measured normalized growth.
Format: numeric value only, no unit, no commentary.

Answer with the recorded normalized growth for the compound listed here: CC(=O)CC(c1ccccc1)c1c(O)c2ccccc2oc1=O (stereo not drawn)
1.1

* * *

Test: chemical genetic growth profiling, strain panel (AID 1159580)
Details: S. cerevisiae deletion strains, growth OD, locus YHR030C, strain SLT2
Screen size: about 5,500 compounds; about 2,000 (36%) were called active. About 18% were inconclusive and are not listed. Cut-off read from the data, not from the text of the source: active = normalized growth mostly below about 0.91 (no sharp cut-off); inconclusive = no clear call, values can overlap the other calls; inactive = mostly above about 0.92. The list shows a part of the results.
Pick one and only one: active, inactive

MOLECULE	LABEL
c1ccc(Sc2c(-c3ccccc3)nc3ccccn23)cc1	active
N/C(CSc1ncccc1C(F)(F)F)=N/OC(=O)Nc1cccc(Cl)c1	active
N/C(CSc1ccc(Cl)cc1)=N/OC(=O)c1ccc(C(F)(F)F)cc1	active

Lab log entry: CC(C)(C)C(=O)C(Oc1ccc(Cl)cc1)n1cncn1 (stereo unspecified) — outcome as called in the assay?
active

Lab log entry: "CCOC(=O)c1c(SC)[nH]c2c(C(F)(F)F)cccc2c1=O" — outcome as called in the assay?
inactive

Lab log entry: "CC1(C)CC(=O)c2c(S(C)(=O)=O)sc(Br)c2C1" — outcome as called in the assay?
inactive

* * *

Assay: chemical genetic growth profiling, strain panel (AID 1159580)
Settings: S. cerevisiae deletion strains, growth OD, locus YOL006C, strain TOP1
About 2,000 (36%) of roughly 5,500 compounds were called active. Another 18% or so got no clear call; they are omitted. Cut-off read from the data, not from the text of the source: active = normalized growth mostly below about 0.91 (no sharp cut-off); inconclusive = no clear call, values can overlap the other calls; inactive = mostly above about 0.92. The list shows a part of the results.
Pick one and only one: yes (1) = active, no (0) = inactive

COMPOUND	LABEL
C#CCOS(=O)OC1CCCCC1Oc1ccc(C(C)(C)C)cc1 (stereo not drawn)	no (0)
O=C1CC[C@]23C=CC(=O)NCCCCNCCCNC(=O)/C=C/c4ccc(c2c4)O[C@@H]3C1	no (0)
Nc1nc(N)c2nc(-c3ccccc3)c(N)nc2n1	no (0)
CSC(=NCc1cccnc1)NC#N	no (0)

Lab log entry: COC(=O)C[C@H]1C(C)(C)C(=O)[C@@H]2CC3=C4CC(OC)O[C@@H](c5ccoc5)[C@]4(C)CCC3[C@@]1(C)C2=O (stereo partly drawn) — outcome as called in the assay?
no (0)

Lab log entry: CSc1ccc2c(c1)C(N1CCN(C)CC1)Cc1ccccc1S2 (stereo not drawn) — outcome as called in the assay?
yes (1)

Lab log entry: "O=c1c2ccccc2[se]n1-c1ccccc1" — outcome as called in the assay?
yes (1)

Lab log entry: CC(=O)O[C@H]1C[C@H](O[C@H]2[C@@H](O)C[C@H](O[C@H]3[C@@H](O)C[C@H](O[C@H]4CC[C@@]5(C)C(CCC6C5C[C@@H](O)[C@]5(C)[C@@H](C7=CC(=O)OC7)CC[C@]65O)C4)O[C@@H]3C)O[C@@H]2C)O[C@H](C)[C@H]1O[C@@H]1O[C@H](CO)[C@@H](O)[C@H](O)[C@H]1O (stereo partly drawn) — outcome as called in the assay?
no (0)

* * *

Experiment: chemical genetic growth profiling, strain panel (AID 1159580);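 note: tested at 20 µM; growth read once vehicle control cultures reached saturation at 30 °C; 1 = growth at the plate median or of vehicle wells; lower values mean less growth of the strain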
Details: S. cerevisiae deletion strains, growth OD, locus YPR119W, strain clb2, hits give low values
Screen size: about 5,500 compounds; about 2,000 (36%) were called active. About 18% were inconclusive and are not listed. Some of the results follow.
MEASURED_ENDPOINT: normalized growth
Format: numeric value only, no unit, no commentary.

COMPOUND	REPORTED_RESULT
O=c1c2ccccc2oc2ccc(O)cc12	0.949
CC(C)c1ccc2c(c1O)CC[C@H]1C3=C(CC[C@]21C)C(=O)OC3	0.951
CN1CCN2c3ccccc3Cc3ccccc3C2C1 (stereo not drawn)	0.988
CN1CCOC(c2ccccc2)c2ccccc2C1 (stereo not drawn)	1.01
O=C(/C=C/c1ccccc1)c1ccc(O)cc1	0.905
CC1=NCCc2c1[nH]c1cc(O)ccc21	0.989
NS(=O)(=O)c1cc2c(cc1C(F)(F)F)NCNS2(=O)=O	0.994
O=c1oc2ccccc2c(O)c1Cc1c(O)c2ccccc2oc1=O	0.966

Answer with the recorded normalized growth for the compound listed here: "ClC(Cl)=C(c1ccc(Cl)cc1)c1ccc(Cl)cc1"
0.932

Answer with the recorded normalized growth for the compound listed here: "Cc1cc2cc3c(C)cc(=O)oc3c(C)c2o1"
0.987

Answer with the recorded normalized growth for the compound listed here: "Clc1ccc(Cl)cc1"
0.988

Answer with the recorded normalized growth for the compound listed here: OC1C(O)C(O)C(O)C(O)C1O (stereo not drawn)
0.993

Answer with the recorded normalized growth for the compound listed here: "COc1ccc(C(=O)/C=C/c2ccccc2)cc1"
0.964

* * *

Assay: chemical genetic growth profiling, strain panel (AID 1159580);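 note: tested at 20 µM; growth read once vehicle control cultures reached saturation at 30 °C; 1 = growth at the plate median or of vehicle wells; lower values mean less growth of the strain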
Conditions: S. cerevisiae deletion strains, growth OD, locus YGR052W, strain FMP48, hits give low values
The campaign covered roughly 5,500 compounds. About 2,000 (36%) were called active. Not shown: some 18% with an inconclusive outcome. The list shows a part of the results.
MEASURED_ENDPOINT: normalized growth

MOLECULE	normalized growth
O=C(NCc1cccs1)c1csc(Cc2c(Cl)cccc2Cl)n1	1.06 (inactive)

Answer with the recorded normalized growth for the molecule listed here: "C#Cc1cccc(N=Cc2cc(Cl)cc(Br)c2O)c1"
0.127 (active)

Answer with the recorded normalized growth for the molecule listed here: "Clc1ccccc1N/N=C\Cc1nnnn1-c1ccccc1"
0.827 (inactive)

Answer with the recorded normalized growth for the molecule listed here: "C/C(=N/Nc1nc(C(C)(C)C)cs1)c1ccc(Cl)c(Cl)c1"
0.932 (inactive)

Answer with the recorded normalized growth for the molecule listed here: "Fc1ccc(N/N=C\Cc2nnnn2-c2ccccc2)c(F)c1"
0.302 (active)

Answer with the recorded normalized growth for the molecule listed here: CCC(C)COC(=O)/C=C/c1ccc(N=Cc2ccc(OC)cc2)cc1 (configuration not stated)
0.779 (inactive)

Answer with the recorded normalized growth for the molecule listed here: "Cc1csc2ncnc(N/N=C\c3ccccc3Cl)c12"
1.03 (inactive)

* * *

Each record here notes measured normalized growth.
Test: chemical genetic growth profiling, strain panel (AID 1159580);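 note: tested at 20 µM; growth read once vehicle control cultures reached saturation at 30 °C; 1 = growth at the plate median or of vehicle wells; lower values mean less growth of the strain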
Settings: S. cerevisiae deletion strains, growth OD, locus YGL227W, strain vid30, hits give low values
Screen size: about 5,500 compounds; about 2,000 (36%) were called active. Another 18% or so got no clear call; they are omitted. The list shows a part of the results.
Format: numeric value only, no unit, no commentary.

Below are worked cases with known answers.
MOLECULE	REPORTED_RESULT
CC1(C)O[C@@H]2CC3C4C[C@H](F)C5=CC(=O)C=C[C@]5(C)[C@@]4(F)[C@@H](O)C[C@]3(C)[C@]2(C(=O)CO)O1 (stereo partly drawn)	1.02
CNCCC=C1c2ccccc2CCc2ccccc21	0.966
CCCCCCc1ccc(O)cc1O	0.977
CC1=NCCc2c1[nH]c1cc(O)ccc21	0.99
O=C(O)c1cn(-c2ccc(F)cc2)c2cc(N3CCNCC3)c(F)cc2c1=O	0.954
COc1ccc2cc3[n+](cc2c1OC)CCc1cc2c(cc1-3)OCO2	0.989
CC(=O)O.CC(=O)O.[Cd]	0.901
O=C(/C=C/c1ccccc1)c1ccc(O)cc1	0.0651
COc1ccc(-c2cc(=O)c3c(OC(C)=O)cc(OC(C)=O)cc3o2)cc1	0.98
CCn1cc(C(=O)O)c(=O)c2cc(F)c(N3CCNCC3)cc21	0.979

Answer with the recorded normalized growth for the molecule listed here: "COc1cccc2c1cc([N+](=O)[O-])c1c(C(=O)O)cc3c(c12)OCO3"
1.02

Answer with the recorded normalized growth for the molecule listed here: "CN(C)CCC=C1c2ccccc2CCc2ccccc21"
0.994

Answer with the recorded normalized growth for the molecule listed here: "COc1ccc(-c2cc(=O)c3cc(OC)ccc3o2)cc1"
0.947

Answer with the recorded normalized growth for the molecule listed here: "C[n+]1cc2c3c(ccc2c2ccc4cc5c(cc4c21)OCO5)OCO3"
0.519

Answer with the recorded normalized growth for the molecule listed here: "COc1cc2cc[n+]3cc4c(OC)c(OC)ccc4cc3c2cc1OC"
0.973

Answer with the recorded normalized growth for the molecule listed here: "CCCCC1C(=O)N(c2ccccc2)N(c2ccccc2)C1=O"
1

Answer with the recorded normalized growth for the molecule listed here: CC[C@]12C=CCN3CC[C@@]4(c5ccc(OC)cc5N(C)C4[C@@](O)(C(=O)OC)[C@@H]1OC(C)=O)[C@@H]32 (stereo partly drawn)
0.989

Answer with the recorded normalized growth for the molecule listed here: "CCN1CCN(c2cc3c(cc2F)c(=O)c(C(=O)O)cn3C2CC2)CC1"
1.01

Answer with the recorded normalized growth for the molecule listed here: "CCCCCCCCCc1ccc(O)cc1"
0.0725

Answer with the recorded normalized growth for the molecule listed here: "CC(=O)Oc1cc(-c2coc3cc(OC(C)=O)c(OC(C)=O)c(OC(C)=O)c3c2=O)cc(OC(C)=O)c1OC(C)=O"
0.996

Answer with the recorded normalized growth for the molecule listed here: "CN(C)CCC=C1c2ccccc2C=Cc2ccccc21"
0.97

Answer with the recorded normalized growth for the molecule listed here: C=C1C(N)CC2CC1C2(C)C (stereo not drawn)
1

Answer with the recorded normalized growth for the molecule listed here: "O=C(O)c1nc2cc(Cl)c(Cl)cc2[nH]c1=O"
1.02
